- assayDetails: MTT cell proliferation assay, fibroblasts
- Format: cell-based, human
- settings: human, 100 μM, MTT, 72 h, read-out: fibroblast proliferation rate after 72 hours
Peptide text beside a SMILES is read from it.
In this section we review reported viability at 72 h, 100 µM values for a set of compounds.

compound	viability at 72 h, 100 µM (%)
CCCCCCCCCCCCCCCC(=O)N[C@@H](Cc1ccc(O)cc1)C(=O)N[C@@H](CCCNC(=N)N)C(=O)N[C@@H](CO)C(=O)N[C@@H](CCCNC(=N)N)C(=O)N[C@@H](CCCCN)C(=O)N[C@@H](Cc1ccc(O)cc1)C(=O)N[C@@H](CO)C(=O)N[C@@H](CO)C(=O)N[C@@H](Cc1c[nH]c2ccccc12)C(=O)N[C@@H](Cc1ccc(O)cc1)C(N)=O [P4A, Palmitoyl-YRSRKYSSWY-amide] (HELM PEPTIDE1{[CCCCCCCCCCCCCCCC(=O)[*:2]].Y.R.S.R.K.Y.S.S.W.Y.[am]}$$$$V2.0)	97
CCCCCCCCCCCCCCCC(=O)N[C@@H](Cc1ccc(O)cc1)C(=O)N[C@@H](CCCNC(=N)N)C(=O)N[C@@H](CO)C(=O)N[C@@H](CCCNC(=N)N)C(=O)N[C@@H](CCCCN)C(=O)N[C@H](Cc1ccc(O)cc1)C(=O)N[C@@H](CO)C(=O)N[C@@H](CO)C(=O)N[C@@H](Cc1c[nH]c2ccccc12)C(=O)N[C@@H](Cc1ccc(O)cc1)C(N)=O [P4B, Palmitoyl-YRSRK[*Y]SSWY-amide] (HELM PEPTIDE1{[CCCCCCCCCCCCCCCC(=O)[*:2]].Y.R.S.R.K.[dY].S.S.W.Y.[am]}$$$$V2.0)	98

# credit: patent US20180296456A1
